Cited source for all entries: the supplement of paper PMC10567573

B1: TOR1AIP2 (parent)
chain: YTSSQKVSPIQIDGAGRTWQDSDT

variants of: B1; experiment: protein stability index of a GFP-peptide fusion (GPS, HEK-293T) (PSI 1-6); higher = more stable; conditions: c terminus: a fixed tail appended;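 further: lentivirally expressed fusions sorted by FACS into six bins by GFP to DsRed ratio, PSI derived from sequencing read proportions per bin multiplied by bin number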
protein stability index for assorted variants

D21N    3.29
Q11L    2.8
T24E    5
G16V    3
Q11D    3.96

protein stability index lookup needed for G16R , thanks.
3.19

Ok, now G14S
3.51

Ok, now V7G
3.96

Ok, now I10A
3.77

Ok, now V7D
3.67

Ok, now G16P
3.24

Ok, now D21L
2.46

Ok, now D21F
2.33

Ok, now V7I
2.9

Ok, now Q11A
2.96

Ok, now G16M
3.65

Ok, now Q11M
3.16

Ok, now Y1Q
4.64

Ok, now S4T
3.34
